Each recorded value in this set is attributed to ChEMBL document CHEMBL1275458.

# Lookup of reported MIC keyed by entry
test system: Streptococcus agalactiae; test: Antimicrobial activity against penicillin-resistant Streptococcus agalactiae B68 by agar dilution method; type: functional
Lab note: write values as number then unit, every time.

| MOLECULE | MIC |
| --- | --- |
| Cc1nnc(SCC2=C(C(=O)O)N3C(=O)[C@@H](NC(=O)Cn4cnnn4)[C@H]3SC2)s1 | 0.5 µg/mL |
| Cc1onc(-c2ccccc2)c1C(=O)N[C@@H]1C(=O)N2[C@@H]1SC(C)(C)[C@@H]2C(=O)O | 4 µg/mL |
| CC1(C)S[C@@H]2[C@H](NC(=O)COc3ccccc3)C(=O)N2[C@H]1C(=O)O | 0.25 µg/mL |
| CO/N=C(\C(=O)N[C@@H]1C(=O)N2C(C(=O)[O-])=C(C[N+]3(C)CCCC3)CS[C@H]12)c1csc(N)n1 [CEFEPIME] | 0.5 µg/mL |

Considering CO/N=C(\C(=O)N[C@@H]1C(=O)N2C(C(=O)O)=C(COC(C)=O)CS[C@H]12)c1csc(N)n1 , its MIC with Streptococcus agalactiae was recorded as 0.25 µg/mL

Considering CC1(C)S[C@@H]2[C@H](NC(=O)Cc3ccccc3)C(=O)N2[C@H]1C(=O)O , its MIC with Streptococcus agalactiae was recorded as 0.5 µg/mL

Considering C[C@@H](O)[C@H]1C(=O)N2C(C(=O)O)=C(S[C@@H]3CN[C@H](C(=O)N(C)C)C3)[C@H](C)[C@H]12 , its MIC with Streptococcus agalactiae was recorded as 0.12 µg/mL

Considering CO/N=C(\C(=O)N[C@@H]1C(=O)N2C(C(=O)O)=CCS[C@H]12)c1csc(N)n1 , its MIC with Streptococcus agalactiae was recorded as 4 µg/mL

Considering CC1(C)S[C@@H]2[C@H](NC(=O)[C@H](N)c3ccccc3)C(=O)N2[C@H]1C(=O)O , its MIC with Streptococcus agalactiae was recorded as 0.5 µg/mL

---

system: Streptococcus agalactiae; assay: Antimicrobial activity against penicillin-resistant Streptococcus agalactiae B10 by agar dilution method; assay type: functional
PARAMETER MEASURED: MIC

// known answers, use as guide
| COMPOUND | VAL |
| --- | --- |
| CO/N=C(\C(=O)N[C@@H]1C(=O)N2C(C(=O)[O-])=C(C[N+]3(C)CCCC3)CS[C@H]12)c1csc(N)n1 [CEFEPIME] | 0.25 µg/mL |
| Cc1onc(-c2ccccc2)c1C(=O)N[C@@H]1C(=O)N2[C@@H]1SC(C)(C)[C@@H]2C(=O)O | 4 µg/mL |
| Cc1nnc(SCC2=C(C(=O)O)N3C(=O)[C@@H](NC(=O)Cn4cnnn4)[C@H]3SC2)s1 | 1 µg/mL |

Measured MIC, C[C@@H](O)[C@H]1C(=O)N2C(C(=O)O)=C(S[C@@H]3CN[C@H](C(=O)N(C)C)C3)[C@H](C)[C@H]12 : 0.06 µg/mL

Measured MIC, CO/N=C(\C(=O)N[C@@H]1C(=O)N2C(C(=O)O)=CCS[C@H]12)c1csc(N)n1 : 16 µg/mL

Measured MIC, CC1(C)S[C@@H]2[C@H](NC(=O)[C@H](N)c3ccccc3)C(=O)N2[C@H]1C(=O)O : 0.12 µg/mL

Measured MIC, CC1(C)S[C@@H]2[C@H](NC(=O)COc3ccccc3)C(=O)N2[C@H]1C(=O)O : 0.25 µg/mL

Measured MIC, CO/N=C(\C(=O)N[C@@H]1C(=O)N2C(C(=O)O)=C(COC(C)=O)CS[C@H]12)c1csc(N)n1 : 0.5 µg/mL

Measured MIC, CC1(C)S[C@@H]2[C@H](NC(=O)Cc3ccccc3)C(=O)N2[C@H]1C(=O)O : 0.5 µg/mL

---

test system: Streptococcus agalactiae; assay: Antimicrobial activity against penicillin-resistant Streptococcus agalactiae B60 by agar dilution method; format: functional
# Lookup of reported MIC keyed by entry
Give the quantity in µg/mL, number only.

| MOL SMILES | VAL |
| --- | --- |
| Cc1nnc(SCC2=C(C(=O)O)N3C(=O)[C@@H](NC(=O)Cn4cnnn4)[C@H]3SC2)s1 | 1 |
| CC1(C)S[C@@H]2[C@H](NC(=O)[C@H](N)c3ccccc3)C(=O)N2[C@H]1C(=O)O | 0.25 |
| CC1(C)S[C@@H]2[C@H](NC(=O)COc3ccccc3)C(=O)N2[C@H]1C(=O)O | 0.25 |

Measured MIC, CO/N=C(\C(=O)N[C@@H]1C(=O)N2C(C(=O)O)=CCS[C@H]12)c1csc(N)n1 : 32

Measured MIC, CC1(C)S[C@@H]2[C@H](NC(=O)Cc3ccccc3)C(=O)N2[C@H]1C(=O)O : 0.25

---

# Lookup of reported MIC keyed by entry
test system: Streptococcus agalactiae; assay: Antimicrobial activity against penicillin-resistant Streptococcus agalactiae B513 by agar dilution method; type: functional
Give the quantity in µg/mL, number only.

// known answers, use as guide
| MOLECULE | ASSAYED SYSTEM | UNITS OF MEASURE | VAL |
| --- | --- | --- | --- |
| C[C@@H](O)[C@H]1C(=O)N2C(C(=O)O)=C(S[C@@H]3CN[C@H](C(=O)N(C)C)C3)[C@H](C)[C@H]12 [MEROPENEM] | Streptococcus agalactiae | µg/mL | 0.25 |
| CC1(C)S[C@@H]2[C@H](NC(=O)COc3ccccc3)C(=O)N2[C@H]1C(=O)O [PENICILLIN V] | Streptococcus agalactiae | µg/mL | 1 |
| CC1(C)S[C@@H]2[C@H](NC(=O)Cc3ccccc3)C(=O)N2[C@H]1C(=O)O [PENICILLIN G] | Streptococcus agalactiae | µg/mL | 1 |
| CO/N=C(\C(=O)N[C@@H]1C(=O)N2C(C(=O)O)=CCS[C@H]12)c1csc(N)n1 [CEFTIZOXIME] | Streptococcus agalactiae | µg/mL | 64 |

Measured MIC, CO/N=C(\C(=O)N[C@@H]1C(=O)N2C(C(=O)O)=C(COC(C)=O)CS[C@H]12)c1csc(N)n1 [CEFOTAXIME] : 1

Measured MIC, CC1(C)S[C@@H]2[C@H](NC(=O)[C@H](N)c3ccccc3)C(=O)N2[C@H]1C(=O)O [AMPICILLIN] : 0.5

---

tested on: Streptococcus agalactiae; assay: Antimicrobial activity against penicillin-resistant Streptococcus agalactiae B6 by agar dilution method; assay type: functional
satisfied if MIC is below 0.2 mg/L. not satisfied if not; exact matches included in not satisfied.

For orientation, consider the following solved cases.
| COMPOUND | LABEL CLASS |
| --- | --- |
| Cc1nnc(SCC2=C(C(=O)O)N3C(=O)[C@@H](NC(=O)Cn4cnnn4)[C@H]3SC2)s1 | not satisfied |
| CO/N=C(\C(=O)N[C@@H]1C(=O)N2C(C(=O)O)=CCS[C@H]12)c1csc(N)n1 | not satisfied |
| CC1(C)S[C@@H]2[C@H](NC(=O)Cc3ccccc3)C(=O)N2[C@H]1C(=O)O | not satisfied |
| C[C@@H](O)[C@H]1C(=O)N2C(C(=O)O)=C(S[C@@H]3CN[C@H](C(=O)N(C)C)C3)[C@H](C)[C@H]12 | satisfied |
| CO/N=C(\C(=O)N[C@@H]1C(=O)N2C(C(=O)[O-])=C(C[N+]3(C)CCCC3)CS[C@H]12)c1csc(N)n1 [CEFEPIME] | not satisfied |

Ask | hey, is MIC for CO/N=C(\C(=O)N[C@@H]1C(=O)N2C(C(=O)O)=C(COC(C)=O)CS[C@H]12)c1csc(N)n1 lower than 0.2 mg/L or not?
Reply | not satisfied

Ask | hey, is MIC for CC1(C)S[C@@H]2[C@H](NC(=O)COc3ccccc3)C(=O)N2[C@H]1C(=O)O lower than 0.2 mg/L or not?
Reply | not satisfied

Ask | hey, is MIC for Cc1onc(-c2ccccc2)c1C(=O)N[C@@H]1C(=O)N2[C@@H]1SC(C)(C)[C@@H]2C(=O)O lower than 0.2 mg/L or not?
Reply | not satisfied

Ask | hey, is MIC for CC1(C)S[C@@H]2[C@H](NC(=O)[C@H](N)c3ccccc3)C(=O)N2[C@H]1C(=O)O lower than 0.2 mg/L or not?
Reply | satisfied

---

# Lookup of reported MIC keyed by entry
test system: Streptococcus agalactiae; assay: Antimicrobial activity against penicillin-resistant Streptococcus agalactiae B7 by agar dilution method; type: functional
Give the quantity in mg/L, number only.

// known answers, use as guide
| COMPOUND | PARAMETER MEASURED | VAL |
| --- | --- | --- |
| CC1(C)S[C@@H]2[C@H](NC(=O)Cc3ccccc3)C(=O)N2[C@H]1C(=O)O | MIC | 0.25 |
| Cc1nnc(SCC2=C(C(=O)O)N3C(=O)[C@@H](NC(=O)Cn4cnnn4)[C@H]3SC2)s1 | MIC | 0.5 |
| CC1(C)S[C@@H]2[C@H](NC(=O)[C@H](N)c3ccccc3)C(=O)N2[C@H]1C(=O)O | MIC | 0.12 |
| C[C@@H](O)[C@H]1C(=O)N2C(C(=O)O)=C(S[C@@H]3CN[C@H](C(=O)N(C)C)C3)[C@H](C)[C@H]12 | MIC | 0.25 |
| CO/N=C(\C(=O)N[C@@H]1C(=O)N2C(C(=O)O)=C(COC(C)=O)CS[C@H]12)c1csc(N)n1 | MIC | 0.12 |
| CO/N=C(\C(=O)N[C@@H]1C(=O)N2C(C(=O)[O-])=C(C[N+]3(C)CCCC3)CS[C@H]12)c1csc(N)n1 [CEFEPIME] | MIC | 0.25 |

Measured MIC, CC1(C)S[C@@H]2[C@H](NC(=O)COc3ccccc3)C(=O)N2[C@H]1C(=O)O : 0.12

Measured MIC, CO/N=C(\C(=O)N[C@@H]1C(=O)N2C(C(=O)O)=CCS[C@H]12)c1csc(N)n1 : 4

Measured MIC, Cc1onc(-c2ccccc2)c1C(=O)N[C@@H]1C(=O)N2[C@@H]1SC(C)(C)[C@@H]2C(=O)O : 2
